- test.system: Axl (Homo sapiens, UniProt P30530)
- Construct: endogenous in cells; host or cells: HeLa cells
- Sequence (P30530 26-894): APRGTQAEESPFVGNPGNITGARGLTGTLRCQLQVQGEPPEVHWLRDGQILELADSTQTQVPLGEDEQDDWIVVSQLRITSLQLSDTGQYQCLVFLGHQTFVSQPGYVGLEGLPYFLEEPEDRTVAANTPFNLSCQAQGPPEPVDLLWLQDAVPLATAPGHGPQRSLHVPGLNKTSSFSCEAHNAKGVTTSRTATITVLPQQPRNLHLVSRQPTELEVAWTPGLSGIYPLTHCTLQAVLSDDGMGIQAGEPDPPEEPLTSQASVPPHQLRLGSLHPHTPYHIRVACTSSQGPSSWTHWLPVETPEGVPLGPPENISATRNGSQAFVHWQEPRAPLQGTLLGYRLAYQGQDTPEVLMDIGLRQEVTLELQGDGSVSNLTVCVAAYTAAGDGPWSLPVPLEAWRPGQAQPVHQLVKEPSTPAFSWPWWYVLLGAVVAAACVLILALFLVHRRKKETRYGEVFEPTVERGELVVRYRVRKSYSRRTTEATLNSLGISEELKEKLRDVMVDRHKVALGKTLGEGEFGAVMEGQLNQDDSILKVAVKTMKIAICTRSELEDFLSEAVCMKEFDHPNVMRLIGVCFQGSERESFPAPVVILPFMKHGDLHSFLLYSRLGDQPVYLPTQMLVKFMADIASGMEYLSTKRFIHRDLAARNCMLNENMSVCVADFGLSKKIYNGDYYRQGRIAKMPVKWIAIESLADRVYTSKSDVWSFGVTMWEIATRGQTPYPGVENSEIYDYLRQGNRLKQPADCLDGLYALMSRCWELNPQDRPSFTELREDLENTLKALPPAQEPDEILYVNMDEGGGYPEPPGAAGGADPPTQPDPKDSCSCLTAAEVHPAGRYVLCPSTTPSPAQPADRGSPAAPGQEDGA
- method.summary: Phospho-Akt In-Cell Western Assay (inhibition of Axl activity)
- Assay type: cell-based
- measurement.context: Hela cells, Axl antibody cross-linking stimulation, phospho-Akt chemiluminescence normalized to cell number; compound of formula (Ib), Table 2
quantity.kind: IC50

- Nc1nc(Nc2ccc3c(c2)C(=O)NCCCC3)n(-c2cc3c(nn2)-c2ccccc2CCC3)n1: 1 to 10 µM
